# Test system: OVCAR-4
# experiment.summary: NCI tumour cell line growth inhibition, 48 h
Calls of active or inactive are those of the source. Cut-off read from the data, not from the text of the source: active = GI50 up to about 1.1 µM and inactive = higher.
The reader will find reported GI50 values listed item by item below.
quantity.name: GI50

| molecule | quantity.name | reading |
| --- | --- | --- |
| Nc1nc(=O)[nH]c2c1cnn2C1CCCCO1 (stereo not given) | GI50 | > 100 µM (inactive) |
| CC1(C)C2CCC(CN)(C2)C1N (stereo not given) | GI50 | > 100 µM (inactive) |
| CCCC1C(CC)C(NC)C(C#N)(C#N)C1(C#N)C#N (stereo not given) | GI50 | 28.2 µM (inactive) |
| Cn1c2ccccc2n2c3ccccc3c(=O)c(C#N)c12 | GI50 | > 100 µM (inactive) |
| O=C(CC(=O)N1N=C(N(c2ccccc2)c2ccccc2)CC1c1ccccc1)Nc1ccccc1 (stereo not given) | GI50 | > 100 µM (inactive) |
| COC(=O)C(/C(=N/N)C(=O)Nc1cccc(O)c1)c1nc2ccccc2nc1O (stereo not given) | GI50 | > 100 µM (inactive) |
| C/C(=N\NC(=S)Nc1ccc([N+](=O)[O-])cc1)c1nc2cccnc2[nH]1 | GI50 | 0.583 µM (active) |
| OCCNCCOc1ccc(/C(=C(/Cl)c2ccccc2)c2ccccc2)cc1 | GI50 | 16.5 µM (inactive) |
| COC(=O)[C@H](Cc1ccccc1)NC(=O)N(CCN(CCC#N)C(=O)N[C@H](C(=O)OC)C(C)C)c1ccccc1 | GI50 | 53.3 µM (inactive) |
| Cc1ccc(-n2c3nc(=O)n(C)c(=O)c-3nc3ccccc32)c(C)c1 | GI50 | 12 µM (inactive) |
| O=[N+]([O-])c1ccc(C(=S)Nc2ccccc2)o1 | GI50 | 2.43 µM (inactive) |
| O=Nc1c(-c2c(O)[nH]c3ccc(I)cc23)[nH]c2ccccc12 | GI50 | 3.41 µM (inactive) |
| OCCCCCCCCCCCOc1ccc(C2OCC3(CC=CCC3)CO2)cc1 (stereo not given) | GI50 | 15.7 µM (inactive) |
| O=c1c2cc([N+](=O)[O-])ccc2n2n1CCCCC2 | GI50 | > 100 µM (inactive) |
| O=[N+]([O-])/C(Cl)=C(\Sc1ccccc1)C(Cl)=C(Cl)Cl | GI50 | 1.49 µM (inactive) |
| CCOC(=O)C1(Cc2ccccc2)Cc2ccccc2C1=O (stereo not given) | GI50 | 18.7 µM (inactive) |
| C=C1C(=O)OC2/C=C(\C)C(OC(C)=O)C3OC3C(C)(O)CC(OC(=O)/C(C)=C/C)C12 (stereo not given) | GI50 | 33.8 µM (inactive) |
| COc1ccc(NCc2cnc3nc(N)nc(N)c3c2C)cc1 | GI50 | > 53.5 µM (inactive) |
| CC1(C(=O)O)CCCC1C(=O)O (stereo not given) | GI50 | > 100 µM (inactive) |
| COc1ccc2c(c1)[n+]([O-])c(/C(C)=N/NC(=O)CC#N)c[n+]2[O-] | GI50 | > 100 µM (inactive) |

###

# Test system: T47D
# experiment.summary: NCI tumour cell line growth inhibition, 48 h
Calls of active or inactive are those of the source. Rule as the data show it: active = GI50 up to about 1.1 µM and inactive = higher.
The reader will find reported GI50 values listed item by item below.
quantity.name: GI50

| compound | reading |
| --- | --- |
| Fc1cc(F)c(F)c(S)c1F | > 100 µM (inactive) |
| O=C1C([P+](c2ccccc2)(c2ccccc2)c2ccccc2)=C([O-])C(=Cc2ccc(Cl)c(Cl)c2)C([O-])=C1[P+](c1ccccc1)(c1ccccc1)c1ccccc1 | 3.37 µM (inactive) |
| CC1(C)C2CCC(CN)(C2)C1N (stereo not given) | > 100 µM (inactive) |
| O=[N+]([O-])c1cc(Cl)c(Cl)cc1[N+](=O)[O-] | 3.24 µM (inactive) |
| CCCCC(=O)c1ccc2ccccc2c1O | 49.2 µM (inactive) |
| CC1=[N+]([O-])C(C)(C)N(N=O)C1(C)C | > 10 µM (inactive) |
| O=[N+]([O-])/C(Cl)=C(\Sc1ccccc1)C(Cl)=C(Cl)Cl | 1.28 µM (inactive) |
| Cc1ccccc1/N=N/c1c(O)c(S(=O)(=O)O)cc2cc(S(=O)(=O)O)ccc12 | > 100 µM (inactive) |
| Cc1cc(C)nc(NS(=O)(=O)c2ccc(NC(=O)NC(F)(F)F)cc2)n1 | > 100 µM (inactive) |
| Cc1cn(C2C=CC(COP(=O)(OCc3ccc([N+](=O)[O-])o3)N(C)CCCCCl)O2)c(=O)[nH]c1=O (stereo not given) | 1.57 µM (inactive) |
